B1: INTS3 (parent)
chain: FSDDEEDLNSKGKKREFRFHPIKE

# Variants of: B1
# PROTOCOL SUMMARY: protein stability index of a GFP-peptide fusion (GPS, HEK-293T) (PSI 1-6); higher = more stable;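 also: lentivirally expressed fusions sorted by FACS into six bins by GFP to DsRed ratio, PSI derived from sequencing read proportions per bin multiplied by bin number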
# RECORDED CONDITIONS: c terminus: a fixed tail appended
The following variants are shown together with reported protein stability index values.

SEQ	protein stability index
FSDDEEDLNSKGKKREFREHPIKE [F19E]	5.59
FSDDEEDLNSKGKKREFIFHPIKE [R18I]	4.55
FSDDVEDLNSKGKKREFRFHPIKE [E5V]	2.9
FSDDEEDLNSKGKKREFRFSPIKE [H20S]	5.18
FSDDEEDLNSKGKKGEFRFHPIKE [R15G]	3.2
FSDEEEDLNSKGKKREFRFHPIKE [D4E]	3.05
FSDDEEDLNSKGKKREFRFHPGKE [I22G]	2.98
FSDDEEDLNSKGKKREFRFHHIKE [P21H]	4.01
FSDDEEDLNSKGKKRDFRFHPIKE [E16D]	4
FSDDEEDLNSKGKKREFRFHLIKE [P21L]	4.25
FSDDEEDLNSKGKKREFRFHPIKR [E24R]	2.31
FSDDEEDLNTKGKKREFRFHPIKE [S10T]	2.87
FSDDEEDLNSKGKEREFRFHPIKE [K14E]	3.44
FSIDEEDLNSKGKKREFRFHPIKE [D3I]	2.09
FSTDEEDLNSKGKKREFRFHPIKE [D3T]	2.9
FSDDEEDLNSKGKKLEFRFHPIKE [R15L]	2.53
FSDDEEDLNSKWKKREFRFHPIKE [G12W]	2.11
FSDDEPDLNSKGKKREFRFHPIKE [E6P]	2.36
FSDDEEDLNSKGKKREFRNHPIKE [F19N]	5.26
FSDDEEDSNSKGKKREFRFHPIKE [L8S]	3.37
FSDDEEDLNSKGKKHEFRFHPIKE [R15H]	2.26
FSDDEEGLNSKGKKREFRFHPIKE [D7G]	2.13
FSDDEEDTNSKGKKREFRFHPIKE [L8T]	3.23
FSDDEEDLNSKGKKRCFRFHPIKE [E16C]	2.37
FSDDEEDLCSKGKKREFRFHPIKE [N9C]	2.67
FSDDEEDLNSKGKKRLFRFHPIKE [E16L]	3.46
FSDKEEDLNSKGKKREFRFHPIKE [D4K]	2.02
FSDDEDDLNSKGKKREFRFHPIKE [E6D]	2.8
FSDDETDLNSKGKKREFRFHPIKE [E6T]	3.08
